Recorded IC50, one value per entry.
System: 519858-162-T-J1-PDC complex spheroid growth, % test/control;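 further: seven day drug exposure begun three days after spheroid seeding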
test.details: Anticancer human tumor 519858-162-T-J1-PDC patient-derived colon adenocarcinoma cell line growth inhibition [Asc]
condition.label: curve of first compound; second compound 0.0316 µM
Reply numerically in nM, unit not repeated.

compound: COc1c(OCCCN2CCOCC2)ccc2c3n(c(=NC(=O)c4cnc(N)nc4)nc12)CCN3 + CNC(C)C(=O)NC1CN(S(=O)(=O)c2cccc(S(=O)(=O)N3CCC4CCC(C(=O)NC(c5ccccc5)c5ccccc5)N4C(=O)C(NC(=O)C(C)NC)C3)c2)CCC2CCC(C(=O)NC(c3ccccc3)c3ccccc3)N2C1=O
experimental.system: 519858-162-T-J1-PDC complex spheroid growth, % test/control;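 further: seven day drug exposure begun three days after spheroid seeding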
unit.annotation: nM
IC50: 156
--
compound: O=C(c1ccc(F)c(F)c1Nc1ccc(I)cc1F)N1CC(O)([C@@H]2CCCCN2)C1 + CNC(C)C(=O)NC1CN(S(=O)(=O)c2cccc(S(=O)(=O)N3CCC4CCC(C(=O)NC(c5ccccc5)c5ccccc5)N4C(=O)C(NC(=O)C(C)NC)C3)c2)CCC2CCC(C(=O)NC(c3ccccc3)c3ccccc3)N2C1=O
experimental.system: 519858-162-T-J1-PDC complex spheroid growth, % test/control;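 further: seven day drug exposure begun three days after spheroid seeding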
unit.annotation: nM
IC50: 284

Let us move to another entry and its IC50.
INPUT: Could you share which IC50 value was measured for O=C(c1ccc(F)c(F)c1Nc1ccc(I)cc1F)N1CC(O)([C@@H]2CCCCN2)C1 + Cc1c(S(C)(=O)=O)c(-c2cc(F)cc(N3CCN(c4ccc(NS(=O)(=O)c5ccc(NC(CCN6CCC(C(=O)OCCCP(=O)(O)O)CC6)CSc6ccccc6)c(S(=O)(=O)C(F)(F)F)c5)cc4)CC3)c2)c(-c2ccc(Cl)cc2)n1C(C)C ?
OUTPUT: 283

Entry source: PubChem BioAssay AID1963421
